# Test system: HeLa Kyoto
# METHOD NOTES: solubility in G1/S (NP-40 vs SDS abundance) (log2 ratio); higher = more soluble
# CONDITION LABEL: cell cycle stage: G1/S
Give solubility in G1/S (log2) for every item shown.
// keep it numeric: no unit symbol after the value

Prompt: Return reported solubility in G1/S (log2); argument: MENFRKVRSEEAPAGCGAEGGGPGSGPFADLAPGAVHMRVKEGSKIRNLMAFATASMAQPATRAIVFSGCGRATTKTVTCAEILKRRLAGLHQVTRLRYRSVREVWQSLPPGPTQGQTPGEPAASLSVLKNVPGLAILLSKDALDPRQPGYQPPNPHPGPSSPPAAPASKRSLGEPAAGEGSAKRSQPEPGVADEDQTA [RPP25]
Response: 0.179

Prompt: State the recorded solubility in G1/S (log2) for this entry: MSYVFVNDSSQTNVPLLQACIDGDFNYSKRLLESGFDPNIRDSRGRTGLHLAAARGNVDICQLLHKFGADLLATDYQGNTALHLCGHVDTIQFLVSNGLKIDICNHQGATPLVLAKRRGVNKDVIRLLESLEEQEVKGFNRGTHSKLETMQTAESESAMESHSLLNPNLQQGEGVLSSFRTTWQEFVEDLGFWRVLLLIFVIALLSLGIAYYVSGVLPFVENQPELVH [ANKRD46]
Response: 0.237

Prompt: If you can, please state the reported solubility in G1/S (log2) value of MFLVNSFLKGGGGGGGGGGGLGGGLGNVLGGLISGAGGGGGGGGGGGGGGGGGGGGTAMRILGGVISAISEAAAQYNPEPPPPRTHYSNIEANESEEVRQFRRLFAQLAGDDMEVSATELMNILNKVVTRHPDLKTDGFGIDTCRSMVAVMDSDTTGKLGFEEFKYLWNNIKRWQAIYKQFDTDRSGTICSSELPGAFEAAGFHLNEHLYNMIIRRYSDESGNMDFDNFISCLVRLDAMFRAFKSLDKDGTGQIQVNIQEWLQLTMYS [CAPNS1] .
Response: 0.395

Prompt: Bench note: what solubility in G1/S (log2) did MAAAEEEPKPKKLKVEAPQALRENILFGMGNPLLDISAVVDKDFLDKYSLKPNDQILAEDKHKELFDELVKKFKVEYHAGGSTQNSIKVAQWMIQQPHKAATFFGCIGIDKFGEILKRKAAEAHVDAHYYEQNEQPTGTCAACITGDNRSLIANLAAANCYKKEKHLDLEKNWMLVEKARVCYIAGFFLTVSPESVLKVAHHASENNRIFTLNLSAPFISQFYKESLMKVMPYVDILFGNETEAATFAREQGFETKDIKEIAKKTQALPKMNSKRQRIVIFTQGRDDTIMATESEVTAFAVLDQDQKEIIDTNGAGDAFVGGFLSQLVSDKPLTECIRAGHYAASIIIRRTGCTFPEKPDFH [ADK] show?
Response: 0.242

---

# Test system: HeLa Kyoto;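 further: HeLa Kyoto cells arrested at G1/S by double thymidine block, proteins quantified by TMT10plex mass spectrometry in mild NP-40 versus SDS extracts, three biological replicates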
# METHOD NOTES: solubility in G1/S (NP-40 vs SDS abundance) (log2 ratio); higher = more soluble
# CONDITION LABEL: cell cycle stage: G1/S
EXPERIMENTAL ENDPOINT: solubility in G1/S (log2)
No unit in the answer, please; the number alone is enough.

Prompt: solubility in G1/S (log2) for MAAGDGDVKLGTLGSGSESSNDGGSESPGDAGAAAEGGGWAAAALALLTGGGEMLLNVALVALVLLGAYRLWVRWGRRGLGAGAGAGEESPATSLPRMKKRDFSLEQLRQYDGSRNPRILLAVNGKVFDVTKGSKFYGPAGPYGIFAGRDASRGLATFCLDKDALRDEYDDLSDLNAVQMESVREWEMQFKEKYDYVGRLLKPGEEPSEYTDEEDTKDHNKQD [PGRMC2] ?
Response: 0.236

Prompt: Bench note: what solubility in G1/S (log2) did MEQLRAAARLQIVLGHLGRPSAGAVVAHPTSGTISSASFHPQQFQYTLDNNVLTLEQRKFYEENGFLVIKNLVPDADIQRFRNEFEKICRKEVKPLGLTVMRDVTISKSEYAPSEKMITKVQDFQEDKELFRYCTLPEILKYVECFTGPNIMAMHTMLINKPPDSGKKTSRHPLHQDLHYFPFRPSDLIVCAWTAMEHISRNNGCLVVLPGTHKGSLKPHDYPKWEGGVNKMFHGIQDYEENKARVHLVMEKGDTVFFHPLLIHGSGQNKTQGFRKAISCHFASADCHYIDVKGTSQENIEKEVVGIAHKFFGAENSVNLKDIWMFRARLVKGERTNL [PHYH] show?
Response: 0.298

Prompt: Entry MDGLRQRVEHFLEQRNLVTEVLGALEAKTGVEKRYLAAGAVTLLSLYLLFGYGASLLCNLIGFVYPAYASIKAIESPSKDDDTVWLTYWVVYALFGLAEFFSDLLLSWFPFYYVGKCAFLLFCMAPRPWNGALMLYQRVVRPLFLRHHGAVDRIMNDLSGRALDAAAGITRNVLQVLARSRAGITPVAVAGPSTPLEADLKPSQTPQPKDK [REEP6] has what solubility in G1/S (log2)?
Response: -0.206

Prompt: Can you look up the measured solubility in G1/S (log2) of MAAQCVRLARRSLPALALSLRPSPRLLCTATKQKNSGQNLEEDMGQSEQKADPPATEKTLLEEKVKLEEQLKETVEKYKRALADTENLRQRSQKLVEEAKLYGIQAFCKDLLEVADVLEKATQCVPKEEIKDDNPHLKNLYEGLVMTEVQIQKVFTKHGLLKLNPVGAKFDPYEHEALFHTPVEGKEPGTVALVSKVGYKLHGRTLRPALVGVVKEA [GRPEL1] for me?
Response: 0.661
